Entry source: patent US20250064909A1

pKd overview
Biological target: T1, recombinant human TIGIT (Sino Biological) (human, UniProt Q495A1 22-138)
T1 construct: Bought protein; NP_776160.2; also called human TIGIT antigen; hTIGIT
T1 sequence: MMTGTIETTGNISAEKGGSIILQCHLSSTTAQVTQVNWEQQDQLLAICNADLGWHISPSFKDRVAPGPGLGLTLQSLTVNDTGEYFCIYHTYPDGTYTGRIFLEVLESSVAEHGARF
Assay: SPR (Biacore T200), single cycle kinetics, IgG from supernatant captured on anti-human chip, TIGIT as analyte, 1:1 fit;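 note: measured at 25 °C in HBS-P+ with 1% BSA, four ascending TIGIT concentrations, 210 s association per step, one final 900 s dissociation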
# reply with the number alone; pKd is -log10 of concentration in mol/L

[[record]]
binder = "7A6 VH2/Vκ2 humanized antibody (human IgG1, kappa) (antibody, V domains shown, Tested as IgG in supernatant of transiently transfected HEK293 EBNA cells) VH: DVQLQESGPGLVKPSQTLSLTCTVTGYSITSDYAWNWIRQPPGKGLEWMGYISYSGSARYNPSLKSRITISRDTSKNQFSLKLSSVTAEDTATYYCARKGYPAYFAYWGQGTLVTVSS VL: DIVMTQSPSSLSASVGDRVSITCKASQDVSTAVAWYQQKPGQAPRLLIYSASYRYTGVPDRFTGSGSGTDFTLTISSLQAEDVAVYYCQHHYSTPYTFGQGTKLEIKR"
measured = 9.02


Next up:
Prompt: Give the reported pKd for this binder. 7A6 VH5/Vκ1 humanized antibody (human IgG1, kappa) (antibody, V domains shown, Tested as IgG in supernatant of transiently transfected HEK293 EBNA cells) VH: QVQLQESGPGLVKPSQTLSLTCTVTGYSITSDYAWNWIRQPPGKGLEWMGYISYSGSARYNPSLKSRVTISVDTSKNQFSLKLSSVTAADTAVYYCARKGYPAYFAYWGQGTLVTVSS VL: DIVMTQSHSFLSASVGDRVSITCKASQDVSTAVAWYQQKPGQAPELLIYSASYRYTGVPDRFTGSGSGTDFTLTISSLQAEDVAVYYCQHHYSTPYTFGQGTKLEMKR
Response: 9.07
